target: human GABAA α1β3γ2 receptor (Homo sapiens (Human), UniProt P14867+P18507); test: Radioligand binding assay, competition for [3H]Flumazenil, HEK293F cells
pKi: −log10 of the molar value.
measurement_type: pKi

molecule="C[C@@H]1N=C(c2nc(O)ccc2F)c2c(ccc(C(F)(F)F)c2Cl)-n2cc(C(=O)N3CCC3)nc21 [Example 30]" assay_target="human GABAA α1β3γ2 receptor (Homo sapiens (Human), UniProt P14867+P18507)" test_result=4.89
molecule="Cc1cnc2n1-c1ccc(C(F)(F)F)c(Cl)c1C(c1nc(O)ccc1F)=N[C@H]2C [Example 23]" assay_target="human GABAA α1β3γ2 receptor (Homo sapiens (Human), UniProt P14867+P18507)" test_result=5.10
molecule="COC1CN(C(=O)c2ncn3c2CN=C(c2cc(O)ccc2F)c2c-3ccc(C(F)(F)F)c2Cl)C1 [Example 15]" assay_target="human GABAA α1β3γ2 receptor (Homo sapiens (Human), UniProt P14867+P18507)" test_result=6.92
molecule="Cc1nnc2n1-c1ccc(C(F)(F)F)c(Cl)c1C(c1nc(O)ccc1Cl)=N[C@H]2C [Example 22]" assay_target="human GABAA α1β3γ2 receptor (Homo sapiens (Human), UniProt P14867+P18507)" test_result=5.01
molecule="Cc1nnc2n1-c1ccc(C(F)(F)F)c(Cl)c1C(c1cc(O)ccc1F)=N[C@H]2C [Example 17]" assay_target="human GABAA α1β3γ2 receptor (Homo sapiens (Human), UniProt P14867+P18507)" test_result=7.16
molecule="Oc1ccc(F)c(C2=NCc3nncn3-c3ccc(C(F)(F)F)c(Cl)c32)c1 [Example 10]" assay_target="human GABAA α1β3γ2 receptor (Homo sapiens (Human), UniProt P14867+P18507)" test_result=7.05
molecule="Cc1nnc2n1-c1ccc(Cl)c(Cl)c1C(c1c(F)ccc(O)c1F)=NC2 [Example 13]" assay_target="human GABAA α1β3γ2 receptor (Homo sapiens (Human), UniProt P14867+P18507)" test_result=7.14
molecule="CN1C(=O)CN=C(c2c(F)ccc(O)c2F)c2c1ccc(Cl)c2Cl [Example 12]" assay_target="human GABAA α1β3γ2 receptor (Homo sapiens (Human), UniProt P14867+P18507)" test_result=6.43
molecule="Cc1nnc2n1-c1ccc(Cl)c(Cl)c1C(c1cc(O)ccc1F)=N[C@H]2C [Example 4]" assay_target="human GABAA α1β3γ2 receptor (Homo sapiens (Human), UniProt P14867+P18507)" test_result=7.09
molecule="CN1C(=O)CN=C(c2cc(O)ccc2F)c2cc(Cl)ccc21 [RE-B, reference compound]" assay_target="human GABAA α1β3γ2 receptor (Homo sapiens (Human), UniProt P14867+P18507)" test_result=8.96
molecule="Cc1nnc2n1-c1ccc(C(F)(F)F)c(Cl)c1C(c1nc(O)ccc1F)=N[C@H]2C [Example 20]" assay_target="human GABAA α1β3γ2 receptor (Homo sapiens (Human), UniProt P14867+P18507)" test_result=4.95
molecule="C[C@@H]1N=C(c2nc(O)ccc2F)c2c(ccc(C(F)(F)F)c2Cl)-n2c1nc1c2CCC1 [Example 24]" assay_target="human GABAA α1β3γ2 receptor (Homo sapiens (Human), UniProt P14867+P18507)" test_result=5.38
molecule="CC(C)NC(=O)c1cn2c(n1)[C@H](C)N=C(c1nc(O)ccc1F)c1c-2ccc(C(F)(F)F)c1Cl [Example 32]" assay_target="human GABAA α1β3γ2 receptor (Homo sapiens (Human), UniProt P14867+P18507)" test_result=5.07
molecule="Cc1cn2c(n1)[C@H](C)N=C(c1nc(O)ccc1F)c1c-2ccc(C(F)(F)F)c1Cl [Example 28]" assay_target="human GABAA α1β3γ2 receptor (Homo sapiens (Human), UniProt P14867+P18507)" test_result=5.39
molecule="C[C@@H]1N=C(c2nc(O)ccc2F)c2c(ccc(C(F)(F)F)c2Cl)-n2cc(C(=O)NC3CC3)nc21 [Example 31]" assay_target="human GABAA α1β3γ2 receptor (Homo sapiens (Human), UniProt P14867+P18507)" test_result=4.90
molecule="Cc1nc2n(n1)-c1ccc(C(F)(F)F)c(Cl)c1C(c1nc(O)ccc1F)=N[C@H]2C [Example 25]" assay_target="human GABAA α1β3γ2 receptor (Homo sapiens (Human), UniProt P14867+P18507)" test_result=4.97
molecule="CN1C(=O)CN=C(c2cc(O)ccc2F)c2c1ccc(C(F)(F)F)c2Cl [Example 8]" assay_target="human GABAA α1β3γ2 receptor (Homo sapiens (Human), UniProt P14867+P18507)" test_result=7.09
molecule="COC1CN(C(=O)c2nc3n(n2)-c2ccc(C(F)(F)F)c(Cl)c2C(c2cc(O)ccc2F)=NC3)C1 [Example 16]" assay_target="human GABAA α1β3γ2 receptor (Homo sapiens (Human), UniProt P14867+P18507)" test_result=6.78
molecule="C[C@@H]1N=C(c2cc(O)ccc2F)c2c(ccc(Cl)c2Cl)-n2ccc(=O)nc21 [Example 5]" assay_target="human GABAA α1β3γ2 receptor (Homo sapiens (Human), UniProt P14867+P18507)" test_result=6.59
molecule="Cc1ccc2c(c1Cl)C(c1cc(O)ccc1F)=NCC(=O)N2C [Example 2]" assay_target="human GABAA α1β3γ2 receptor (Homo sapiens (Human), UniProt P14867+P18507)" test_result=7.24
molecule="Cc1cnc2n1-c1ccc(C(F)(F)F)c(Cl)c1C(c1nc(O)ccc1Cl)=N[C@H]2C [Example 26]" assay_target="human GABAA α1β3γ2 receptor (Homo sapiens (Human), UniProt P14867+P18507)" test_result=5.17
molecule="Cc1nnc2n1-c1ccc(Cl)c(Cl)c1C(c1cc(O)ccc1F)=NC2 [Example 3]" assay_target="human GABAA α1β3γ2 receptor (Homo sapiens (Human), UniProt P14867+P18507)" test_result=7.46
molecule="O=c1ccn2c(n1)CN=C(c1c(F)ccc(O)c1F)c1c-2ccc(Cl)c1Cl [Example 14]" assay_target="human GABAA α1β3γ2 receptor (Homo sapiens (Human), UniProt P14867+P18507)" test_result=7.13
molecule="C[C@@H]1N=C(c2c(F)ccc(O)c2F)c2c(ccc(Cl)c2Cl)-n2ccc(=O)nc21 [Example 18]" assay_target="human GABAA α1β3γ2 receptor (Homo sapiens (Human), UniProt P14867+P18507)" test_result=6.59
molecule="Cc1nc2n(n1)-c1ccc(C(F)(F)F)c(Cl)c1C(c1nc(O)ccc1Cl)=N[C@H]2C [Example 29]" assay_target="human GABAA α1β3γ2 receptor (Homo sapiens (Human), UniProt P14867+P18507)" test_result=4.92
molecule="Cc1nnc2n1-c1ccc(C(F)(F)F)c(Cl)c1C(c1cc(O)ccc1F)=NC2 [Example 9]" assay_target="human GABAA α1β3γ2 receptor (Homo sapiens (Human), UniProt P14867+P18507)" test_result=6.98
molecule="CN1C(=O)CN=C(c2cc(O)ccc2F)c2c1ccc(Cl)c2Cl [Example 1]" assay_target="human GABAA α1β3γ2 receptor (Homo sapiens (Human), UniProt P14867+P18507)" test_result=7.54
molecule="Cc1nnc2n1-c1ccc(Cl)c(Cl)c1C(c1c(F)ccc(O)c1F)=N[C@H]2C [Example 19]" assay_target="human GABAA α1β3γ2 receptor (Homo sapiens (Human), UniProt P14867+P18507)" test_result=7.48
molecule="COC1CN(C(=O)c2nc3n(n2)-c2ccc(Cl)c(Cl)c2C(c2cc(O)ccc2F)=NC3)C1 [Example 7]" assay_target="human GABAA α1β3γ2 receptor (Homo sapiens (Human), UniProt P14867+P18507)" test_result=7.46
molecule="O=c1ccn2c(n1)CN=C(c1cc(O)ccc1F)c1c-2ccc(Cl)c1Cl [Example 6]" assay_target="human GABAA α1β3γ2 receptor (Homo sapiens (Human), UniProt P14867+P18507)" test_result=7.33
molecule="Cc1cn2c(n1)[C@H](C)N=C(c1nc(O)ccc1Cl)c1c-2ccc(C(F)(F)F)c1Cl [Example 27]" assay_target="human GABAA α1β3γ2 receptor (Homo sapiens (Human), UniProt P14867+P18507)" test_result=5.45
molecule="O=c1ccn2c(n1)CN=C(c1cc(O)ccc1F)c1c-2ccc(C(F)(F)F)c1Cl [Example 11]" assay_target="human GABAA α1β3γ2 receptor (Homo sapiens (Human), UniProt P14867+P18507)" test_result=6.45
